Reported AUC values follow for various compounds
# PROTOCOL: Pharmacokinetics in whole blood
# Format: in vivo, mouse (CD-1)
# COND: mouse, in vivo, ip, 40 mg/kg, males; 40 mg/kg i.p. single dose, whole blood; read-out: AUC (area under the curve)
Write it as a number; the unit ng·h/mL goes unstated.

{"COMPOUND": "C=CCC1C=C(C)CC(C)CC(OC)C2OC(O)(C(=O)C(=O)N3CCCCC3C(=O)OC(C(C)=CC3CCC(O)C(OC)C3)C(C)C(O)CC1=O)C(C)CC2OC (centres unmarked) [FK506, reference compound]", "AUC [ng·h/mL]": 15200}

Now consider the entry below.
Q) # input compound: CC[C@@H]1/C=C(\C)C[C@H](C)C[C@H](OC)[C@H]2O[C@@](O)(C(=O)C(=O)N3CCCC[C@H]3C(=O)O[C@H](/C(C)=C/C3CC[C@@H](O)[C@H](OC)C3)[C@H](C)[C@@H](O)C/C1=N/NC(=O)OC)[C@H](C)C[C@@H]2OC (some centres unmarked) ; wanted: its AUC
A) 15600

* * *

# PROTOCOL: Pharmacokinetics in whole blood
# Assay type: in vivo, mouse (CD-1)
# COND: mouse, in vivo, ip, 40 mg/kg, males; 40 mg/kg i.p. single dose, whole blood; read-out: t1/2 (3-12 h) (half-life) (converted)
# Description: For the lead compound JH-FK-08, the mechanism of action resulting in antifungal activity was tested for conservation of calcineurin inhibition. To probe the JH-FK-08 mechanism of action, MICs of JH-FK-08 were determined with fungal mutants that lack the drug-binding protein FKBP12 or have mutations in the binding site on calcineurin that prevent FKBP12-FK506 binding and inhibition. […]
METRIC NAME: half-life (h)
Your answer should be a plain number; it is taken to be in h.

{"COMPOUND": "C=CCC1C=C(C)CC(C)CC(OC)C2OC(O)(C(=O)C(=O)N3CCCCC3C(=O)OC(C(C)=CC3CCC(O)C(OC)C3)C(C)C(O)CC1=O)C(C)CC2OC (centres unmarked) [FK506, reference compound]", "half-life [h]": 1.48}

Attention now turns to another entry.
Q) Requested field: half-life. Item: CC[C@@H]1/C=C(\C)C[C@H](C)C[C@H](OC)[C@H]2O[C@@](O)(C(=O)C(=O)N3CCCC[C@H]3C(=O)O[C@H](/C(C)=C/C3CC[C@@H](O)[C@H](OC)C3)[C@H](C)[C@@H](O)C/C1=N/NC(=O)OC)[C@H](C)C[C@@H]2OC (some centres unmarked)
A) 1.29

* * *

# Test system: Aspergillus fumigatus
# PROTOCOL: Broth microdilution MIC/MEC (Example 1)
# Format: cell-based
# COND: Aspergillus fumigatus; strain Af293; read-out: MEC against Aspergillus fumigatus (Af293)
Let's look at some compounds and their measured minimal effective concentration.
Remember to put the unit after the number in your answer.

{"COMPOUND": "C=CC[C@@H]1/C=C(\\C)C[C@H](C)C[C@H](OC)[C@H]2O[C@@](O)(C(=O)C(=O)N3CCCC[C@H]3C(=O)O[C@H](/C(C)=C/[C@@H]3CC[C@@H](O)[C@H](OC)C3)[C@H](C)[C@@H](O)CC1=NNC(=O)CN(C)C)[C@H](C)C[C@@H]2OC [JH-FK-04]", "minimal effective concentration": "2 µg/mL"}
{"COMPOUND": "CC[C@@H]1/C=C(\\C)C[C@H](C)C[C@H](OC)[C@H]2O[C@@](O)(C(=O)C(=O)N3CCCC[C@H]3C(=O)O[C@H](/C(C)=C/[C@@H]3CC[C@@H](O)[C@H](OC)C3)[C@H](C)[C@@H](O)C/C1=N/NC(=O)C(F)(F)F)[C@H](C)C[C@@H]2OC [JH-FK-07]", "minimal effective concentration": "1.25 µg/mL"}

Turning now to a further record.
Q) What value of minimal effective concentration has been recorded for this entry: C=CC[C@@H]1/C=C(\C)C[C@H](C)C[C@H](OC)[C@H]2O[C@@](O)(C(=O)C(=O)N3CCCC[C@H]3C(=O)O[C@H](/C(C)=C/[C@@H]3CC[C@@H](O)[C@H](OC)C3)[C@H](C)[C@@H](O)C/C1=N/NC(=O)CC)[C@H](C)C[C@@H]2OC [JH-FK-02]
A) 2 µg/mL
